Test System: DLA2 ΔCat 462 (Chlamydomonas reinhardtii, UniProt A0A2K3DW88 32-461)
Test Name: MST
Quantity Kind: pKd
Would you please state pKd, meaning minus log10 of the concentration in mol/L, as a bare number?

Reported pKd ( UUUACGGAGAAAUUAAAACUUUCCCCCCCCCCCCAUAUGACCAUGGAUC (ssRNA) [psbA 5'-UTR C-stretch probe] ) = 6.20

Reported pKd ( UUUACGGAGAAAUUAAAACUUUAAAAAAAUUAACAUAUGACCAUGGAUC (ssRNA) [psbA 5'-UTR probe native] ) = 6.37
